# Assay Text: self-splicing fitness, log relative to wild type (ln ratio); higher = more splicing; Tetrahymena group I intron in knt gene, E. coli kanamycin selection, DiMSum; sequences stand for … in CUCUCU…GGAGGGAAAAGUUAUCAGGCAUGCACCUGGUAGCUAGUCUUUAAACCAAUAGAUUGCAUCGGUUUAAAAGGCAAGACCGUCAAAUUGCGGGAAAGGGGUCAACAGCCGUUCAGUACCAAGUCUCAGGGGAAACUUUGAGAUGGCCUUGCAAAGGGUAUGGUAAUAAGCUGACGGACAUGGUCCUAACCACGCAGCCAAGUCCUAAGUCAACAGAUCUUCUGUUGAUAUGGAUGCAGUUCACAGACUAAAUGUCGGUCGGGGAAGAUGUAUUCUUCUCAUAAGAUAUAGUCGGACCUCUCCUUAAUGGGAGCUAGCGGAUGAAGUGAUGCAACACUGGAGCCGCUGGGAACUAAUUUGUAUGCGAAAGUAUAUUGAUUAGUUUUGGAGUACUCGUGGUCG;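 note: selection with 25 µg/mL kanamycin versus none on LB agar overnight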
# Condition Details: 37 °C
Assignment: determine reported self-splicing fitness (ln) for the given sequences.
Numbers only.

The examples below pair each entry with its known result.
>  <Sequence Data>
CUGUAGCAAUAUUACGCUGG

>  <Measured Endpoint>
self-splicing fitness (ln)

>  <Result Number>
-0.992

$$$$
>  <Sequence Data>
AGAGAGCAAUAUUACGUAUA

>  <Measured Endpoint>
self-splicing fitness (ln)

>  <Result Number>
-1.02

$$$$

What does the record list as self-splicing fitness (ln) for AUAUAGCAAUAUUACGGCAA ?
-0.989

###

# Assay Text: self-splicing fitness, log relative to wild type (ln ratio); higher = more splicing; Tetrahymena group I intron in knt gene, E. coli kanamycin selection, DiMSum; sequences stand for … in CUCUCU…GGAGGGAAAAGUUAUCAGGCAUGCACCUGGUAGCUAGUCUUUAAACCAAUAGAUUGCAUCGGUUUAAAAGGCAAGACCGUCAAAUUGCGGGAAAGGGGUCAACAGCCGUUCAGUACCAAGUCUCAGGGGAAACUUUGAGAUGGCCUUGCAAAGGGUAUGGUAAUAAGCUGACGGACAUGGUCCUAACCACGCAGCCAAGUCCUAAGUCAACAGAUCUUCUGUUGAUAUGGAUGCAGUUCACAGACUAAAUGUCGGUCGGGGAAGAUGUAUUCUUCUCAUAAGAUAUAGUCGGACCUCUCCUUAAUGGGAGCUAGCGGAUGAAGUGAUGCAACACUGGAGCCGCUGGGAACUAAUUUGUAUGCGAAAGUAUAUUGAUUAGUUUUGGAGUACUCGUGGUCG
# Condition Details: 37 °C
Measured Endpoint: self-splicing fitness (ln)

>  <Sequence Data>
CCCGAGCAAUAUUACGGUAG

>  <Measured Endpoint>
self-splicing fitness (ln)

>  <Result>
-2.35

$$$$
>  <Sequence Data>
CGUUAGCAAUAUUACGUGGA

>  <Measured Endpoint>
self-splicing fitness (ln)

>  <Result>
-1.68

$$$$
>  <Sequence Data>
UAACAGCAAUAUUACGGCUG

>  <Measured Endpoint>
self-splicing fitness (ln)

>  <Result>
-0.978

$$$$
>  <Sequence Data>
CGACAGCAAUAUUACGAUCG

>  <Measured Endpoint>
self-splicing fitness (ln)

>  <Result>
-2.11

$$$$
>  <Sequence Data>
UAGCAGCAAUAUUACGUGGC

>  <Measured Endpoint>
self-splicing fitness (ln)

>  <Result>
-2.12

$$$$

# batch size: 6; output self-splicing fitness (ln) per entry
1. CUGGAGCAAUAUUACGCCGC
2. UCGAAGCAAUAUUACGACUU
3. CAUGAGCAAUAUUACGCUGU
4. GAACAGCAAUAUUACGGCCG
5. CUUCAGCAAUAUUACGCGCC
6. CCCUAGCAAUAUUACGACUU

[-1.1, -2.8, -1.14, -0.46, -1.92, -2.7]

# batch size: 4; output self-splicing fitness (ln) per entry
1. AGGUAGCAAUAUUACGAUCC
2. UCCUAGCAAUAUUACGGCAG
3. CGCGAGCAAUAUUACGGAGG
4. GCUCAGCAAUAUUACGGGCA

1: 0.212; 2: -2.81; 3: -1.41; 4: -0.69

# batch size: 5; output self-splicing fitness (ln) per entry
1. GGGUAGCAAUAUUACGAAAU
2. CCAAAGCAAUAUUACGGCUU
3. CGGAAGCAAUAUUACGUUCU
4. CCGAAGCAAUAUUACGCCCG
5. ACGGAGCAAUAUUACGUGAU

-0.914
-2.32
-0.77
0.42
-1.32

# batch size: 4; output self-splicing fitness (ln) per entry
1. CCCUAGCAAUAUUACGGAAG
2. CUUAAGCAAUAUUACGCUCA
3. AAUCAGCAAUAUUACGCCCG
4. GGAGAGCAAUAUUACGUCGG

[-2.02, -2.01, -0.489, -3.75]

# batch size: 2; output self-splicing fitness (ln) per entry
1. CAACAGCAAUAUUACGGUGA
2. AAGGAGCAAUAUUACGAAGG

1: -0.727; 2: -2.99

# batch size: 2; output self-splicing fitness (ln) per entry
1. CGCUAGCAAUAUUACGACGC
2. UUCGAGCAAUAUUACGAUUU

[-1.92, -2.19]

# batch size: 2; output self-splicing fitness (ln) per entry
1. GAGUAGCAAUAUUACGCGUG
2. CCUUAGCAAUAUUACGAAUG

[-0.531, -0.423]

# batch size: 7; output self-splicing fitness (ln) per entry
1. CGCGAGCAAUAUUACGAAGG
2. CGCCAGCAAUAUUACGCCAA
3. GAGCAGCAAUAUUACGUGCG
4. ACAUAGCAAUAUUACGAUUA
5. AGUUAGCAAUAUUACGAAUA
6. GUCUAGCAAUAUUACGGUCC
7. UCCCAGCAAUAUUACGAACC

1: -2.64; 2: -2.02; 3: -1.25; 4: -0.602; 5: -0.681; 6: -1.18; 7: -2.08

###

Assignment: determine reported self-splicing fitness (ln) for the given sequences.
# Assay Text: self-splicing fitness, log relative to wild type (ln ratio); higher = more splicing; Tetrahymena group I intron in knt gene, E. coli kanamycin selection, DiMSum; sequences stand for … in CUCUCU…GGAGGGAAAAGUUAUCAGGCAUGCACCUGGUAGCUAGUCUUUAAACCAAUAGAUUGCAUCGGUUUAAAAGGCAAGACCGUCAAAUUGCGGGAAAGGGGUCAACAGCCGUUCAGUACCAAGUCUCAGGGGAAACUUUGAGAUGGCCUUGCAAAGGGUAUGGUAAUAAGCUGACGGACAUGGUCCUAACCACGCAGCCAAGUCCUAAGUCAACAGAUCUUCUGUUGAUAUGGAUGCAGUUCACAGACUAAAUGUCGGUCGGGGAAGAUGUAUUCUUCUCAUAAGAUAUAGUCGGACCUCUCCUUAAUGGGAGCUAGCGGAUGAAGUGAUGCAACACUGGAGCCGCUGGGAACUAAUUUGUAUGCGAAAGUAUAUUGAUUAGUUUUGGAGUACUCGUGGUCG
# Condition Details: 37 °C

The examples below pair each entry with its known result.
>  <Sequence Data>
CCAGAGCAAUAUUACGCGUA

>  <self-splicing fitness (ln)>
-4.46

$$$$
>  <Sequence Data>
UCACAGCAAUAUUACGUCCA

>  <self-splicing fitness (ln)>
-0.533

$$$$

# batch size: 5; output self-splicing fitness (ln) per entry
1. AGCAAGCAAUAUUACGCGUA
2. UCCUAGCAAUAUUACGGCCG
3. GGUAAGCAAUAUUACGACAU
4. UAGUAGCAAUAUUACGUUGC
5. UGUCAGCAAUAUUACGGCCC

1: -0.167; 2: -3.12; 3: -0.0479; 4: -1.53; 5: -0.199

###

Assignment: determine reported self-splicing fitness (ln) for the given sequences.
# Assay Text: self-splicing fitness, log relative to wild type (ln ratio); higher = more splicing; Tetrahymena group I intron in knt gene, E. coli kanamycin selection, DiMSum; sequences stand for … in CUCUCU…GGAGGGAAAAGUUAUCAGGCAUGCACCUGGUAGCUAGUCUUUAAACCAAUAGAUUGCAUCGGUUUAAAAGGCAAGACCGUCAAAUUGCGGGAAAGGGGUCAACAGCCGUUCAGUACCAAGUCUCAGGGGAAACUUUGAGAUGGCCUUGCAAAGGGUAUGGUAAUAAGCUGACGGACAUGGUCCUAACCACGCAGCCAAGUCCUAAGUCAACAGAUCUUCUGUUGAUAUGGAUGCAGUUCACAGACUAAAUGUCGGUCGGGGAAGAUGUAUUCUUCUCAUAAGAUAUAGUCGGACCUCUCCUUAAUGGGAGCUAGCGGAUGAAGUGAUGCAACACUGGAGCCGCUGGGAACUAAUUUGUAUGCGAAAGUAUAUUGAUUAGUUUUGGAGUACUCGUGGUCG
# Condition Details: 37 °C

# batch size: 4; output self-splicing fitness (ln) per entry
1. ACUGAGCAAUAUUACGGCAA
2. UAUCAGCAAUAUUACGAUAG
3. GAGGAGCAAUAUUACGAGGU
4. GGGUAGCAAUAUUACGGAUU

[-2.33, 0.204, -3.09, -0.333]
